Values from the MegaScale stability set (Tsuboyama et al. 2023)

Give measured folding stability dG for each item. Keep answers brief.
B1: HEEH_KT_rd6_0790 (parent)
chain: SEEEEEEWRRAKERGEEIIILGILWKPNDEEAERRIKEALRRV

Variants of: B1
Assay: folding stability dG (cDNA display proteolysis); higher = more stable
Conditions: PBS, room temperature
Numbers only, in kcal/mol.

sequence text	folding stability dG, kcal/mol
SEEEEEEYRRAKERGEEIIILGILWKPNDEEAERRIKEALRRV [W8Y]	1.72
SEEEEEEWRRAKERGEEINILGILWKPNDEEAERRIKEALRRV [I19N]	1.55
SEEEEEEWRRAKERGEEIDILGILWKPNDEEAERRIKEALRRV [I19D]	0.997
SEEEEEEWRRAKERGEEIIILGILWKPNDEVAERRIKEALRRV [E31V]	1.9
SEEEEEEWRRAKERGEEIIILGILWKPNDEEAERRISEALRRV [K37S]	1.85
SEEEEEEWRRAKERGEEIIILGILWGPNDEEAERRIKEALRRV [K26G]	1.52
SEEEEEEARRAKERGEEIIILGILWKPNDEEAERRIKEALRRV [W8A]	0.975
SEEEEEEDRRAKERGEEIIILGILWKPNDEEAERRIKEALRRV [W8D]	0.922

Please state, for each entry, its recorded folding stability dG.
1. SEEEEEEWRRAKERGEEIIILGILWKPNDEEAERRIKEALRRH [V43H]
2. SEEEEEEWRRAKERGEEIIVLGILWKPNDEEAERRIKEALRRV [I20V]
3. SEEEEEEWRRAKERGEEIIILGILWWPNDEEAERRIKEALRRV [K26W]

1. 2.45
2. 1.84
3. 1.53
